- System: MS2 coat protein
- test_method_notes: apparent KD of MS2 coat protein, switch ON state; designed switch direction (-1 OFF switch, 1 ON switch): -1; higher = weaker reporter binding
- test_settings: FMN input: 0 or 200 uM; Eterna round: R93 (includes R88 designs)
readout_kind: apparent KD of MS2 coat protein (nM)
Output spec: scalar in nM, unitless text.

Past entries and their recorded results:
input_sequence	result
AAAAAACAUGAGGAUCACCCAUGUGAGGAUAUGACGUAAAUAAAGAAAGAAGAAAUCGUCAGAAGGCACACCAA [55%, Disencluded 2, 5]	29.8
AGAAUACAUGAGGAUCACCCAUGUAAGGAUAUGUGAAGAAAAAGAAAAGAAAAGAAACACAGAAGGUACAAAAG [EX 1 May 18]	30
AGCUAGUCAGGAUAUACGAACAUGUCAAAAGACGUGAAGGGACAUGAGGAUCACCCAUGUAGAAGGGACUAGCU [salish99-Ex2-20]	28.8
AACUAACAUGAGGAUCACCCAUGUCAGGAUAUGCAAAGAACGAUCGAACGAACGAUAAGCAGAAGGGACAAAAA [Amethyst 96]	29.8
UAUGAGCGAGGAUAUGCUUGGGACGUCGUUCUUGCGGCGAGACAUGAGGAUCACCCAUGUAGAAGGCGCGAGCG [Harteesian Twist]	17.4
AAGAAGGGAGGAUAUACAAAAUAAAAGAAAAGAAAGAAAGAACAUGAGGAUCACCCAUGUAGAAGGCUCAAGAA [Mersekhemre Ined]	37.2
AACAUGUAAGGAUAUAGAAGAAAAGAAAAGAAAGAAAAGAACUAGAAGGUACAUGAGGAUCACCCAUGUAAGAA [EteRNA is fun!]	33.1
AAAACGUCAGGAUAUACAGAAGAGAUCACAAAAAAAAAAAAACAUGAGGAUCACCCAUGUAGAAGGGACAAAAA [Ex2 Malc#2]	111

Prompt: GET /values?readout=apparent KD of MS2 coat protein&system=MS2 coat protein&item= AGUCCAGAAGGAUAUACAUAGGUGAUAAAAAAAAAAAAACUACAUGAGGAUCACCCAUGUAGAAGGUCUGGACA [Brourd - Exclusion 2 - Sub 3]
Response: 37.8

Prompt: Any idea what apparent KD of MS2 coat protein came out for AGCUAGUGAGGAUAUACGAACAUGUCAACGGACUGUAAGGGACAUGAGGAUCACCCAUGUAGAAGGCACUAGCA [Diamond 57] on MS2 coat protein?
Response: 67.2

Prompt: Look up apparent KD of MS2 coat protein with MS2 coat protein for this sequence: GGGCCACAUGAGGAUCACCCAUGUAAGGAUAUGCUAGGGAUGGAAAAAAUUACGCAAAGCAGAAGGUACUAAAG [Janelle Amethyst 18 Mod 9 - Jieux - Exclusion 1]
Response: 26.9

Prompt: Form field - read-out: apparent KD of MS2 coat protein; system: MS2 coat protein; submitted item: AUAAUGUGAGGAUAUACAUGAGGAUCACCCAUGUAAUUAAAAAGGAGAGAAACAAUACGUAGAAGGUACAUUUA [JR_Exc003_Sub510]
Response: 26.7

Prompt: Give MS2 coat protein apparent KD of MS2 coat protein for GAAAAGUGAGGAUAUGCGAAGGCGUCUGAUAGACGAGGCUAGCAGAAGGCACAUGAGGAUCACCCAUGUGGGAG [Mat - Exclusion 4 - Eli mod - D92]
Response: 61.9

Prompt: MS2 coat protein / apparent KD of MS2 coat protein / AAUAAUGCAGGAUAUACUAAAGAAAUGAAAAGAAAUAAAGAACAUGAGGAUCACCCAUGUAGAAGGGCAAAUAA [Yakareb] : value?
Response: 52

Hello, the source for this data is the supplement of paper PMC9170038, in case you need it.
